- TEST TARGET: ActRIIA and ActRIIB (on TGFB/SMAD SBE Reporter HEK293 cells) (human)
- Sequence (chain, as listed by the source, chain 1 of 2): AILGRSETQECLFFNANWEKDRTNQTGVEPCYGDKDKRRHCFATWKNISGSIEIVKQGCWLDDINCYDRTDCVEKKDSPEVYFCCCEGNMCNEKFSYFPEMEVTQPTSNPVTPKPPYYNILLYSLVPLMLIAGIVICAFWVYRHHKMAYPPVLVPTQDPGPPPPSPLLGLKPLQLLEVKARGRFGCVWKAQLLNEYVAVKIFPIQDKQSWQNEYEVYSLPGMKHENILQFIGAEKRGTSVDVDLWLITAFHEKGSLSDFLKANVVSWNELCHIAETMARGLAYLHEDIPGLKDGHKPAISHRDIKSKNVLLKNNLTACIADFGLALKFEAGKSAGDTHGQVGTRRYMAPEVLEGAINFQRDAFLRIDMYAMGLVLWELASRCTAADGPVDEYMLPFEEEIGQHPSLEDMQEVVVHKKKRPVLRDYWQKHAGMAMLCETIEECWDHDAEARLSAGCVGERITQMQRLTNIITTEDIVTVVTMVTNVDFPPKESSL
- Sequence (chain, as listed by the source, chain 2 of 2): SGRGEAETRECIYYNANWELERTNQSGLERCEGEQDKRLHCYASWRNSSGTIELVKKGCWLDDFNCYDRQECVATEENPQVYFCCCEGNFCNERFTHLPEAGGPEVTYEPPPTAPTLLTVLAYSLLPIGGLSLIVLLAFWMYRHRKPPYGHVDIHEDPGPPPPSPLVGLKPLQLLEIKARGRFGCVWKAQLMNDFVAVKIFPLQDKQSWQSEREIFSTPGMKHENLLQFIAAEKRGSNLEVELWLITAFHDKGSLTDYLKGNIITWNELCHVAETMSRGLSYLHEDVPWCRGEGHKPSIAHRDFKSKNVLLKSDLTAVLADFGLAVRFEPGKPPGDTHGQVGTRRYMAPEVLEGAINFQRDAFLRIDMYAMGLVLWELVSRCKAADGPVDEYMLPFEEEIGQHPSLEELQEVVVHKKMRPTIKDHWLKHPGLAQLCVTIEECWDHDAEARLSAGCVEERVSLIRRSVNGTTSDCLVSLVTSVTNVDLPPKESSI
- ASSAY OVERVIEW: cell-based or functional assay
MEASURED PROPERTY: IC50, Activin SMAD RGA
A complete answer gives the number and then names the unit.

A selection of reference data follows.
| BINDER | MEASURED PROPERTY | MEASURED |
| --- | --- | --- |
| Antibody Rippla (antibody, V domains shown, full-length IgG; also called Ripp1a) VH: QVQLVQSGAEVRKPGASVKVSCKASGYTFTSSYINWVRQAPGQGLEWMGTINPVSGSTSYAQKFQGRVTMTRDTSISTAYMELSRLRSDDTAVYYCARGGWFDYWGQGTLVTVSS VL: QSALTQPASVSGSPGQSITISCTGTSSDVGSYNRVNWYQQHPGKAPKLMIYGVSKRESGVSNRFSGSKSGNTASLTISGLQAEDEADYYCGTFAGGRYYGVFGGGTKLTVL | IC50, Activin SMAD RGA | 0.0582 nM |
| Antibody Wurschdsalat (antibody, V domains shown, full-length IgG) VH: QVQLVQSGAEVKKPGASVKVSCKASGYTFTSSYINWVRQAPGQGLEWMGTINAVSGSTSYAQKFQGRVTMTRDESISTAYMELSRLRSDDTAVYYCARGGWFDYWGQGTLVTVSS VL: QSALTQPASVSGSPGQSITISCTGTSSDVGSYNYVNWYQQHPGKAPKLMIYGVSKRESGVSNRFSGSKSGNTASLTISGLQAEDEADYYCGTFAGGKYYGVFGGGTKLTVL | IC50, Activin SMAD RGA | 0.266 nM |

I have this binder here, Antibody Backstoikäs (antibody, V domains shown, full-length IgG) VH: QVQLVQSGAEVKKPGASVKVSCKASGYKFTSSYINWVRQAPGQGLEWMGTINPVSGSTSYAQKFQGRVTMTRDTSISTAYMELSRLRSDDTAVYYCARGGWFDYWGQGTLVTVSS VL: QSALTQPASVSGSPGQSITISCTGTSSDVGSYNYVNWYQQHPGKAPKLMIYGVSKRPRGVSNRFSGSKSGNTASLTISGLQAEDEADYYCGTFAGGSYYGVFGGGTKLTVL , and I need its recorded IC50, Activin SMAD RGA.
0.18 nM
